- Test system: barnyardgrass (Echinochloa crus-galli)
- run description: Test A postemergence, barnyardgrass
- Assay type: in vivo
- test settings: 125 g ai/ha, postemergence; 0 to 100 scale, 0 is no effect, 100 is complete control; approximately 10 days
Each entry falls into one class according to its Plant response rating, Barnyardgrass; the ranges are lower range (below 10), middle range (10 to below 40), upper range (40 or more)

Reference set, count: 10
In [3]: df
Out[3]:
                                   compound      category
0  N#Cc1cccc(Oc2ncc(Cl)cn2)c1OCc1ccc(Cl)cc1   upper range
1      FC(F)(F)CCCOc1c(I)cccc1Oc1ncc(Cl)cn1   upper range
2      FC(F)(F)CCOc1c(Cl)cccc1Oc1ncc(Cl)cn1  middle range
3      Fc1cccc(Oc2ncc(Cl)cn2)c1OCCCC(F)(F)F   upper range
4           N#CCCCOc1c(F)cccc1Oc1ncc(Cl)cn1   lower range
5  O=C(CCC(F)(F)F)COc1c(Br)cccc1Oc1ncc(Cl)cn1  middle range
6           C#Cc1cccc(Oc2ncc(Cl)cn2)c1OCCCF   lower range
7        N#Cc1cccc(Oc2ncc(F)cn2)c1OC/C=C/Cl   upper range
8    N#Cc1cccc(Oc2ncc(Cl)cn2)c1OCc1ccccc1Cl   lower range
9  N#Cc1cccc(Oc2ncc(Cl)cn2)c1OCC(=O)C(F)(F)C(F)(F)F  middle range

## Task Given `Cl/C=C/COc1c(Cl)cccc1Oc1ncc(Cl)cn1` , name the class its Plant response rating, Barnyardgrass places it in.
## Result upper range

## Task The entry to classify is `CCC(=O)COc1c(C#N)cccc1Oc1ncc(Cl)cn1` ; which class holds it?
## Result lower range

## Task Into which category would you place `FC(F)(F)CCCOc1c(Oc2ncc(Cl)cn2)cccc1C(F)(F)F` ?
## Result middle range

## Task Bin? `Fc1cccc(Oc2ncc(Cl)cn2)c1OC/C=C/Cl`
## Result middle range

## Task // return the class label for `FC(F)(F)c1ccc(COc2c(Br)cccc2Oc2ncc(Cl)cn2)cc1`
## Result lower range

###

For each entry below, report its Plant response rating, Pigweed value.
- Test system: pigweed (Amaranthus retroflexus)
- run description: Test A preemergence, pigweed
- Format: in vivo
- test settings: Preemergence, 31 g ai/ha; 0 to 100 scale (0 no effect, 100 complete control)
Give bare numbers.

# count of solved cases: 5
In [3]: df
Out[3]:
                                 cpd_smiles                        endpoint  result
0      FC(F)(F)CCOc1c(Cl)cccc1Oc1ncc(Cl)cn1  Plant response rating, Pigweed      40
1    FC(F)(F)CCCCOc1c(Br)cccc1Oc1ncc(Cl)cn1  Plant response rating, Pigweed      10
2  N#Cc1cccc(Oc2ncc(Cl)cn2)c1OCC(=O)CCC(F)(F)F  Plant response rating, Pigweed       0
3      FC(F)(F)CCCOc1c(I)cccc1Oc1ncc(Cl)cn1  Plant response rating, Pigweed      70
4  O=C(CCC(F)(F)F)COc1c(Br)cccc1Oc1ncc(Cl)cn1  Plant response rating, Pigweed       0

Return reported Plant response rating, Pigweed values for all items listed beneath this line.
1. Cc1cccc(Oc2ncc(Cl)cn2)c1OC/C=C/Cl
2. FCCCOc1c(I)cccc1Oc1ncc(Cl)cn1

## Result
1. 20
2. 70
